Collected solubility (g/100 g solution) values appear next to each entry.
assay: xn = mol fraction of the nth substance listed, in the solute-free solvent; conditions: 283.15 K; x2 = 0.1666
Reply briefly: the number, and no unit.

Consider the compound shown here: O=c1cc(CBr)c2ccccc2[nH]1 + CC(C)O + O What is its recorded solubility (g/100 g solution)?
0.0483

***
Find the recorded solubility (g/100 g solution) belonging to O=c1cc(CBr)c2ccccc2[nH]1 + CCCO + O and report it.
0.0722

Repeat with O=C1C=CC(=O)N1c1ccccc1Br + CC(C)O + O
2.57

Try CC(C)C(=O)Nc1ccc([N+](=O)[O-])c(C(F)(F)F)c1 + CC(C)O + O next.
0.638

# repeat for Nc1ncc(Br)nc1Br + CC(C)O + O
0.129

====

Some compounds, each annotated with its measured solubility (g/100 g solution).
assay: xn = mol fraction of the nth substance listed, in the solute-free solvent; details: 293.15 K; x2 = 0.2068
Enter a number only.

The cases that follow already have their solubility (g/100 g solution) on record.
solubility (g/100 g solution) lookup needed for CC(C)C(=O)Nc1ccc([N+](=O)[O-])c(C(F)(F)F)c1 + CCO + O , thanks.
0.563

One more compound: O=C1C=CC(=O)N1c1ccccc1Br + CCO + O
4.75

---
Item Nc1ncc(Br)nc1Br + CCO + O has what recorded solubility (g/100 g solution)?
0.286

Param item: O=c1cc(CBr)c2ccccc2[nH]1 + CCO + O
0.0787

Note, next up: Nc1cc(-c2ccncc2)c[nH]c1=O + CCO + O
0.00593

====

Overview of recorded solubility (g/100 g solution) for various compounds
test: xn = mol fraction of the nth substance listed, in the solute-free solvent; conditions: 288.15 K; x2 = 0.2307
Number only, no unit.

Please review the entries below; each comes with its answer.
Give its solubility (g/100 g solution) value. Item: O=C1C=CC(=O)N1c1ccccc1Br + CC(C)O + O
4.27

Thanks! And Nc1ncc(Br)nc1Br + CC(C)O + O ?
0.181

Now give it for CC(C)C(=O)Nc1ccc([N+](=O)[O-])c(C(F)(F)F)c1 + CC(C)O + O too.
2.16

Next:
Could you share which solubility (g/100 g solution) value was measured for O=c1cc(CBr)c2ccccc2[nH]1 + CCCO + O ?
0.102

# iterate: O=c1cc(CBr)c2ccccc2[nH]1 + CC(C)O + O
0.0697

====

test: xn = mol fraction of the nth substance listed, in the solute-free solvent; details: 278.15 K; x2 = 0.06974
observedProperty: solubility (g/100 g solution)
Give the figure by itself; no unit, no explanation.

Before answering, review these 4 worked examples.
Returns the measured solubility (g/100 g solution) for the input compound. Input: CC(C)C(=O)Nc1ccc([N+](=O)[O-])c(C(F)(F)F)c1 + CC(C)O + O
0.0295

Subsequent entry: O=c1cc(CBr)c2ccccc2[nH]1 + CC(C)O + O
0.0203

What do you have for O=C1C=CC(=O)N1c1ccccc1Br + CC(C)O + O ?
0.861

Consider next the compound Nc1ncc(Br)nc1Br + CC(C)O + O in the same way.
0.0399

We now examine a further compound.
What solubility (g/100 g solution) value was documented for this compound, O=c1cc(CBr)c2ccccc2[nH]1 + CCCO + O ?
0.0316
